- assayProtocol: folding enthalpy; higher = less favourable; fluorescence melt of hairpins on a sequencing array, two-state fit
- runConditions: sodium 0.088 M
Short version: folding enthalpy at least -30 kcal/mol is true (1), less is false (0).

These solved cases illustrate the format of a correct answer.
recordSequence	answerLabel
GAGCTACGAAAGTACCTC (((.(((....))).)))	true (1)
GTTCTCGAAAGAGTAAC ((((((....))).)))	true (1)
GATCCTACATAGGATC ((((((....))))))	false (0)
GTGATCGGAAACGGTCAC ((((.((....)).))))	false (0)
GGAAGCGGAAACGCTCCC ((.((((....)))).))	true (1)

Problem: Record GATCTTCGGGAAGATC ((((((....)))))) ; criterion: folding enthalpy no lower than -30 kcal/mol. Met?
Solution: false (0)

Problem: Record GCTTCCGCGAAAGCGAGC (((..(((....)))))) ; criterion: folding enthalpy no lower than -30 kcal/mol. Met?
Solution: true (1)

Problem: Record GTTAACGAAAGTTAAC ((((((....)))))) ; criterion: folding enthalpy no lower than -30 kcal/mol. Met?
Solution: true (1)

Problem: Record GAGGCAGGAAACCGCCTC (((((.(....).))))) ; criterion: folding enthalpy no lower than -30 kcal/mol. Met?
Solution: false (0)

====

Entries and their folding enthalpy
- assayProtocol: folding enthalpy; higher = less favourable; fluorescence melt of hairpins on a sequencing array, two-state fit
- runConditions: sodium 0.088 M
Could you kindly put the unit after your number?

Past entries and their recorded results:
recordSequence	folding enthalpy
GGAACGCGAAAGCGTCC (((.(((....))))))	-13.4 kcal/mol
CGAAACGGAAACGTCTCG (((.(((....))).)))	-27.3 kcal/mol

Problem: Requested field: folding enthalpy. Item: GTGGTCGAAAGACGACAC ((((((....)))..)))
Solution: -15.4 kcal/mol

Problem: Requested field: folding enthalpy. Item: GATCACCTGAGTGATC ((((((....))))))
Solution: -35.8 kcal/mol

Problem: Requested field: folding enthalpy. Item: GCAGTCCGAAAGGAATGC (((.(((....))).)))
Solution: -38.1 kcal/mol

Problem: Requested field: folding enthalpy. Item: GCGCTCGGAAACGGGTGC ((.(.((....)).).))
Solution: -53.1 kcal/mol

Problem: Requested field: folding enthalpy. Item: GACTTGGGAAACTAAGTC (((((.(....).)))))
Solution: -28.2 kcal/mol

Problem: Requested field: folding enthalpy. Item: GCATCGGGAAACTGGTGC (((.(.(....).).)))
Solution: -29 kcal/mol

Problem: Requested field: folding enthalpy. Item: GCATTCGAAAGAAGTTGC ((((((....)))..)))
Solution: -7.36 kcal/mol

Problem: Requested field: folding enthalpy. Item: GGTTTCGAAAGAACTACC ((((((....)))..)))
Solution: -10.1 kcal/mol

Problem: Requested field: folding enthalpy. Item: GCGTAGCGAAAGCGTCGC (((..((....))..)))
Solution: -20.5 kcal/mol

Problem: Requested field: folding enthalpy. Item: GATCTCACTGGAGATC ((((((....))))))
Solution: -40 kcal/mol

The values you see were collected from the array DNA melting data of Ke et al. (doi:10.1101/2024.01.08.574731).
